target: Integrin alpha1beta1 (Homo sapiens, UniProt P56199); test: MST
Sequence (P56199 29-1141, chain 1 of 2): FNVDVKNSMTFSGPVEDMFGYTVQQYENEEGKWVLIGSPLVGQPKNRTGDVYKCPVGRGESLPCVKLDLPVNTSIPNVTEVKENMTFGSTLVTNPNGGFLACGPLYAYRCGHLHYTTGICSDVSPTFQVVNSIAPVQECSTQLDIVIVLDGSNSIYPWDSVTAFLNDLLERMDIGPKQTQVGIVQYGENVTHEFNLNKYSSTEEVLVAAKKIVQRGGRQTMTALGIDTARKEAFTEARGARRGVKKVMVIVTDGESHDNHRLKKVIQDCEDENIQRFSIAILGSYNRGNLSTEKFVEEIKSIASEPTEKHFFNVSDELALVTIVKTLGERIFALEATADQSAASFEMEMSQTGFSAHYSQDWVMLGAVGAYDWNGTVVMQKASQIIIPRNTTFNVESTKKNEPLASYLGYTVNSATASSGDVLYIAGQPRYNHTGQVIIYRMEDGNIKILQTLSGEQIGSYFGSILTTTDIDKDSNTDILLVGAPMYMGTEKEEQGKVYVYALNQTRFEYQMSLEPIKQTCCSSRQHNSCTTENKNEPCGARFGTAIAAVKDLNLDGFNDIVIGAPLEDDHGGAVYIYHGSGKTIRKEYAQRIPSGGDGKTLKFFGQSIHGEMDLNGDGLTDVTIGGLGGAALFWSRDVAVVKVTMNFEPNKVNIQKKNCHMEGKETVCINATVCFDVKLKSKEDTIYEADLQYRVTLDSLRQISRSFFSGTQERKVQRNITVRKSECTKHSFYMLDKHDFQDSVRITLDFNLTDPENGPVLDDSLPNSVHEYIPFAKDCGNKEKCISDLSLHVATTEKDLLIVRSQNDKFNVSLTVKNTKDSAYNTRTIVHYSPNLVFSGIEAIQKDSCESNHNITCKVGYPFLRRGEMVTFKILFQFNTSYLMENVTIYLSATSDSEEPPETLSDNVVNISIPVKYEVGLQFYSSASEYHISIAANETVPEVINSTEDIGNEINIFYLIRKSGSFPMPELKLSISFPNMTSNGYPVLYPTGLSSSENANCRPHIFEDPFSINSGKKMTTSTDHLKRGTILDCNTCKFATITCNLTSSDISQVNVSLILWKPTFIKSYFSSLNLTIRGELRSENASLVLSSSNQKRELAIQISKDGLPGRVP
Sequence (chain, as listed by the source, chain 2 of 2): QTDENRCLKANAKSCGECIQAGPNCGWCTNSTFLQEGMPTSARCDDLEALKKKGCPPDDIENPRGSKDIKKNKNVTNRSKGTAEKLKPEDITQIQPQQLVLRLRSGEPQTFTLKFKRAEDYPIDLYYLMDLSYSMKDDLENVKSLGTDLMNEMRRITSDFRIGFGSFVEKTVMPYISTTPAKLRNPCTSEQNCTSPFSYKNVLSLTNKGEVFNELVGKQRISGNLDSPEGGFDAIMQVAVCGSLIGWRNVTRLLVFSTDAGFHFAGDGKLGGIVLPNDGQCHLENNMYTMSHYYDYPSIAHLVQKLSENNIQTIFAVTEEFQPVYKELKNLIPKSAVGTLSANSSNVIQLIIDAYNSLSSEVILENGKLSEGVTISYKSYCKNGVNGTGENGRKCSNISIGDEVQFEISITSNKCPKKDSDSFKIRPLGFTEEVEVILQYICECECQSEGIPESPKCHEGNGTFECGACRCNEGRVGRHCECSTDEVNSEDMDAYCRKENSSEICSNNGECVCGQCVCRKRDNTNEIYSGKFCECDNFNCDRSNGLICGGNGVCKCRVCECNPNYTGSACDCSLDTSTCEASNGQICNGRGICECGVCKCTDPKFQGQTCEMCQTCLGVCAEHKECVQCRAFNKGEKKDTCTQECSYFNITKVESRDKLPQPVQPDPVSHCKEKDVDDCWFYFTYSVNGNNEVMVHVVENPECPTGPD
The label class 1 is reserved for Kd strictly under 800 µM; class 0 covers values equal to or above it.

Does the reported Kd of the following binder sit strictly below 800 µM? LAPGSFKGMK [Collagen alpha-6(IV) chain peptide 4]
class 1

Does the reported Kd of the following binder sit strictly below 800 µM? FKGTKGRDGL [Collagen alpha-6(IV) chain peptide 25]
class 1

Does the reported Kd of the following binder sit strictly below 800 µM? DPGFPGMKGK [Collagen alpha-6(IV) chain peptide 30]
class 1

Does the reported Kd of the following binder sit strictly below 800 µM? NKESGFPGLR [Collagen alpha-6(IV) chain peptide 8]
class 0

Does the reported Kd of the following binder sit strictly below 800 µM? KGARGDRGSG [Collagen alpha-6(IV) chain peptide 10]
class 1

Does the reported Kd of the following binder sit strictly below 800 µM? GPPGSIVKKG [Collagen alpha-6(IV) chain peptide 19]
class 0
